Biological target: Dihydrofolate reductase (Mycobacterium avium, UniProt O30463)
Sequence (O30463 whole entry): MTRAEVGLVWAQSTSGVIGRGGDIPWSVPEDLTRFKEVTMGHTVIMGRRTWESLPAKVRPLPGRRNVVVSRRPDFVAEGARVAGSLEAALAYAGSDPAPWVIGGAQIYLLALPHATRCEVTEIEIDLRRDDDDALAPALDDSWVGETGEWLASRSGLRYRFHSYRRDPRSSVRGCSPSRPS
quantity-measured: IC50 (nM)
Number in nM, nothing else.

Prompt: Recorded IC50 of Nc1nc(N)c2nc(CN3c4ccccc4C=Cc4cc(OCCCC(=O)O)ccc43)cnc2n1 , please.
Completion: 2

---

Biological target: Bifunctional dihydrofolate reductase-thymidylate synthase (Toxoplasma gondii, UniProt Q07422)
Sequence (Q07422 whole entry): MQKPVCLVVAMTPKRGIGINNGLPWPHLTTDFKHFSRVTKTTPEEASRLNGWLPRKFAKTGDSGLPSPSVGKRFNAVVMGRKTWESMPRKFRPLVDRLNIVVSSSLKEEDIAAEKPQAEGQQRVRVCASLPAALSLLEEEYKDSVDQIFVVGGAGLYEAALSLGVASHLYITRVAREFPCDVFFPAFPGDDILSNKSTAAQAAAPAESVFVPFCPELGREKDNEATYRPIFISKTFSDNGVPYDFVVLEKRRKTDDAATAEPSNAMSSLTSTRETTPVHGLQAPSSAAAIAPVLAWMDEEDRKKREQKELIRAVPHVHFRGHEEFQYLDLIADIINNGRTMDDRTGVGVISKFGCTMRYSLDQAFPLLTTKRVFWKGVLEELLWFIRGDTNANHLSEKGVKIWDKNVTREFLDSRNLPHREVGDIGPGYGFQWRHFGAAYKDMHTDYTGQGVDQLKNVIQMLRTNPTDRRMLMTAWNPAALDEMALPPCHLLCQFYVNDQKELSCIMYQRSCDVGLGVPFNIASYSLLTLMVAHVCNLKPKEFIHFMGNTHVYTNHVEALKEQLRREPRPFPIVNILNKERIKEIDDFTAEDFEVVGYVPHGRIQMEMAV
Experiment: Concentration required to inhibit the Toxoplasma gondii Dihydrofolate reductase by 50% was determined; Range: 25-30
quantity-measured: pIC50
Formally, pIC50 is defined as -log10 of the concentration c, with c in mol/L.

Prompt: Dear colleague, I am looking for the recorded pIC50 of the following compound: Nc1nc(N)c2nc(CN3c4ccccc4C=Cc4cc(OCCC(=O)O)ccc43)cnc2n1
Completion: 7.55

---

Biological target: Dihydrofolate reductase (Rattus norvegicus, UniProt Q920D2)
Sequence (Q920D2 whole entry): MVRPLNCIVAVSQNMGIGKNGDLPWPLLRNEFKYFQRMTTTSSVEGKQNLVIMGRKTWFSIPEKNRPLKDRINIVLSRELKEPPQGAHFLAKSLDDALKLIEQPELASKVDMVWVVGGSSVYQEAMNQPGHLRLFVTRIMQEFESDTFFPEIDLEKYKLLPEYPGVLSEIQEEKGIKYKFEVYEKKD
Experiment: Concentration required to inhibit the rat liver Dihydrofolate reductase by 50% was determined; Range: 370-440
quantity-measured: IC50 (nM)
# value in nM; strip the unit string

Prompt: I'd like to know its IC50. The compound in question is Nc1nc(N)c2nc(CN3c4ccccc4C=Cc4cc(O)ccc43)cnc2n1
Completion: 410

---

Target: Dihydrofolate reductase (Mycobacterium avium, UniProt O30463)
Experiment: Concentration required to inhibit the Mycobacterium avium Dihydrofolate reductase by 50% was determined; Range: 6.5-8.0
quantity-measured: IC50 (nM)
Report the value in nM with no unit label.

Prompt: Request body: readout IC50, system Dihydrofolate reductase (Mycobacterium avium, UniProt O30463), query Nc1nc(N)c2nc(CN3c4ccccc4C=Cc4cc(OCCCCC(=O)O)ccc43)cnc2n1 . Return the value.
Completion: 7.2

---

Target: Dihydrofolate reductase (Homo sapiens)
Sequence (P00374 whole entry): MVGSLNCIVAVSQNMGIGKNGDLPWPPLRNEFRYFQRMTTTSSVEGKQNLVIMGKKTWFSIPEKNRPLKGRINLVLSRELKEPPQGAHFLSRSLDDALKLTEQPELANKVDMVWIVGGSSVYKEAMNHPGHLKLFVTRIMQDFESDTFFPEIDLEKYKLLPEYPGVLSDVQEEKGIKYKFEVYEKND
Experiment: Concentration required to inhibit the human Dihydrofolate reductase by 50% was determined (reported by Hoffman-LaRoche group)
quantity-measured: pIC50
Please express pIC50 as -log10 of the molar concentration.

Prompt: Which pIC50 reading was recorded for the compound CCOc1cc(Cc2cnc(N)nc2N)cc(OCC)c1-n1cccc1 [EPIROPRIM] ?
Completion: 3.22
